The entries below are paired with their reported apparent KD of K4 kissing-loop reporter.
# Tested on: K4 kissing-loop RNA reporter;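 further: bound reporter read as fluorescence of individual clusters on recovered sequencing chips by microscopy, with normalized cluster intensities fitted with a binding model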
# run_description: apparent KD of K4 kissing-loop reporter; higher = weaker reporter binding
# experimental_context: Eterna round: R107; input ligand: theophylline 20 uM
Kindly answer with a numeric value in µM, unit omitted.

Answered examples (2):
sequence_chain: GGUAGCAUGGCGGCCGCCACUUCAAAUGGAGUGAUGUUCCAAGGCAUCGCGAAAGCGAUGCCAGGAAGGACCGGGCCAUGCUACC
apparent KD of K4 kissing-loop reporter [µM]: 0.566

sequence_chain: UCCUCGAAUCGACCUCGAAAGAGGAUGGAUACCAGAGAAGAAAUUCUCCCUUGGCAGCCAGUGAUGUUGGAACGAGGUAAAUAAA [#SwitchBubble 20 #K4Late]
apparent KD of K4 kissing-loop reporter [µM]: 0.327

input: Bench note: what apparent KD of K4 kissing-loop reporter did GGGAGCAAAGCUCCCGGAUGCUAUUACCAGUAGGAUAUCUGGAAACAGAGAAGGGCUAAGCCAGUGAUGUUGGUUUCGAGCAUCC show?
output: 0.575

input: Next record, please: AGGUACAAAAGUACCGCUAGAUCCACGGAAGGAGCGCGCGAAAGCGCAGGUAGGUCGCCGGGCAGUGAUGUUGCCGGAUCUAGCA [Omei KL Arginine A SS A v7]
output: 0.165

input: Next: AGAACUGUCUGAGAUACCAGCCAUAGGAGUGAUGUUCCUAGCUCCACAAAGUGGAGCCAUAGCCCUUGGCAGCUCAGACAGUUCA [Omei KL Theo B SS A v7]
output: 0.771
